Catalogue of Emax values
System: c-myc in 22RV-1 cells
Assay: Human c-myc ELISA assay
Assay type: cell-based
Conditions: Homo sapiens, 22Rv1, 18 h, read-out: Degradation of BRD4: Maximum inhibition (%) c-Myc ELISA in 22RV1 cells
Assay readout: Emax

>  <Item smiles>
Cc1ncsc1-c1ccc([C@H](C)NC(=O)[C@@H]2C[C@@H](O)CN2C(=O)[C@@H](NC(=O)CCc2ccc(O[C@H]3C[C@H](NC(=O)C[C@@H]4N=C(c5ccc(Cl)cc5)c5c(sc(C)c5C)-n5c(C)nnc54)C3)nc2)C(C)(C)C)cc1

>  <Result>
96%

$$$$
>  <Item smiles>
Cc1ncsc1-c1ccc(CNC(=O)[C@@H]2C[C@@H](O)CN2C(=O)[C@H](C(C)C)n2cc(-c3cccc(O[C@@H](C)CNC(=O)C[C@@H]4N=C(c5ccc(Cl)cc5)c5c(sc(C)c5C)-n5c(C)nnc54)c3)cn2)cc1

>  <Result>
93%

$$$$
>  <Item smiles>
Cc1ncsc1-c1ccc([C@H](C)NC(=O)[C@@H]2C[C@@H](O)CN2C(=O)[C@@H](NC(=O)CN2CCN(C3CC4(C3)CN(C(=O)C[C@@H]3N=C(c5ccc(Cl)cc5)c5c(sc(C)c5C)-n5c(C)nnc53)C4)C[C@@H]2C)C(C)(C)C)cc1

>  <Result>
> 90%

$$$$
>  <Item smiles>
Cc1ncsc1-c1ccc([C@H](C)NC(=O)[C@@H]2C[C@@H](O)CN2C(=O)[C@H](C(C)C)n2cc(-c3ccnc(N4CC(NC(=O)C[C@@H]5N=C(c6ccc(Cl)cc6)c6c(sc(C)c6C)-n6c(C)nnc65)C4)c3)cn2)cc1

>  <Result>
95.9%

$$$$
>  <Item smiles>
Cc1ncsc1-c1ccc([C@H](C)NC(=O)[C@@H]2C[C@@H](O)CN2C(=O)[C@H](C(C)C)n2cc(-c3cc(O[C@H]4C[C@H](NC(=O)C[C@@H]5N=C(c6ccc(Cl)cc6)c6c(sc(C)c6C)-n6c(C)nnc65)C4)ccn3)cn2)cc1

>  <Result>
95%

$$$$
>  <Item smiles>
Cc1ncsc1-c1ccc([C@H](C)NC(=O)[C@@H]2C[C@@H](O)CN2C(=O)[C@@H](NC(=O)c2cc3cc(OCCNC(=O)C[C@@H]4N=C(c5ccc(Cl)cc5)c5c(sc(C)c5C)-n5c(C)nnc54)ccc3o2)C(C)(C)C)cc1

>  <Result>
97%

$$$$
>  <Item smiles>
Cc1ncsc1-c1ccc([C@H](C)NC(=O)[C@@H]2C[C@@H](O)CN2C(=O)[C@@H](NC(=O)CO[C@H]2C[C@H](OCCNC(=O)C[C@@H]3N=C(c4ccc(Cl)cc4)c4c(sc(C)c4C)-n4c(C)nnc43)C2)C(C)(C)C)cc1

>  <Result>
89.5%

$$$$
>  <Item smiles>
Cc1ncsc1-c1ccc([C@H](C)NC(=O)[C@H]2C[C@H](O)CN2C(=O)[C@@H](NC(=O)c2cc3cc(O[C@H]4C[C@@H](NC(=O)C[C@@H]5N=C(c6ccc(Cl)cc6)c6c(sc(C)c6C)-n6c(C)nnc65)C4)ccc3o2)C(C)(C)C)cc1

>  <Result>
61%

$$$$
>  <Item smiles>
Cc1ncsc1-c1ccc([C@H](C)NC(=O)[C@@H]2C[C@@H](O)CN2C(=O)[C@@H](NC(=O)CCc2cc(F)cc(OCCNC(=O)C[C@@H]3N=C(c4ccc(Cl)cc4)c4c(sc(C)c4C)-n4c(C)nnc43)c2)C(C)(C)C)cc1

>  <Result>
93.9%

$$$$
>  <Item smiles>
Cc1ncsc1-c1ccc(CNC(=O)[C@@H]2C[C@@H](O)CN2C(=O)[C@@H](NC(=O)COCCCOCCCOc2ccc(NC(=O)C[C@@H]3N=C(c4ccc(Cl)cc4)c4c(sc(C)c4C)-n4c(C)nnc43)nc2)C(C)(C)C)cc1

>  <Result>
100%

$$$$
>  <Item smiles>
Cc1ncsc1-c1ccc(CNC(=O)[C@@H]2C[C@@H](O)CN2C(=O)[C@@H](C(C)C)n2cc(-c3ccnc(O[C@H]4C[C@H](NC(=O)C[C@@H]5N=C(c6ccc(Cl)cc6)c6c(sc(C)c6C)-n6c(C)nnc65)C4)c3)cn2)cc1

>  <Result>
50.4%

$$$$
>  <Item smiles>
Cc1ncsc1-c1ccc(CNC(=O)[C@@H]2C[C@@H](O)CN2C(=O)[C@@H](NC(=O)COCCO[C@H]2C[C@H](NC(=O)C[C@@H]3N=C(c4ccc(Cl)cc4)c4c(sc(C)c4C)-n4c(C)nnc43)C2)C(C)(C)C)cc1

>  <Result>
86.9%

$$$$
>  <Item smiles>
Cc1ncsc1-c1ccc([C@H](C)NC(=O)[C@@H]2C[C@@H](O)CN2C(=O)[C@H](C(C)C)n2cc(-c3cccc(O[C@H]4C[C@@H](NC(=O)C[C@@H]5N=C(c6ccc(Cl)cc6)c6c(sc(C)c6C)-n6c(C)nnc65)C4)c3)cn2)cc1

>  <Result>
95.5%

$$$$
>  <Item smiles>
Cc1ncsc1-c1ccc([C@H](C)NC(=O)[C@@H]2C[C@@H](O)CN2C(=O)[C@@H](NC(=O)C[C@@H]2N=C(c3ccc(Cl)cc3)c3c(sc(C)c3C)-n3c(C)nnc32)C(C)(C)C)cc1

>  <Result>
22%

$$$$
>  <Item smiles>
Cc1ncsc1-c1ccc(CNC(=O)[C@@H]2C[C@@H](O)CN2C(=O)[C@@H](NC(=O)COCCCOc2ccc(-c3cnc(NC(=O)C[C@@H]4N=C(c5ccc(Cl)cc5)c5c(sc(C)c5C)-n5c(C)nnc54)cn3)cc2)C(C)(C)C)cc1

>  <Result>
91%

$$$$
>  <Item smiles>
Cc1ncsc1-c1ccc([C@H](C)NC(=O)[C@@H]2C[C@@H](OC(=O)CCCN)CN2C(=O)[C@@H](NC(=O)c2cc3cc(O[C@H]4C[C@@H](NC(=O)C[C@@H]5N=C(c6ccc(Cl)cc6)c6c(sc(C)c6C)-n6c(C)nnc65)C4)ccc3o2)C(C)(C)C)cc1

>  <Result>
95.9%

$$$$
